Target: interaction between GMPPNP-bound recombinant K-Ras4B G12C mutant protein and cRAF RAS-binding domain (cRAF-RBD) (Homo sapiens, UniProt P01116, G12C)
Construct: His-tag (N)
Sequence (P01116 with tags, fused parts or gaps isoform P01116-2 G12C): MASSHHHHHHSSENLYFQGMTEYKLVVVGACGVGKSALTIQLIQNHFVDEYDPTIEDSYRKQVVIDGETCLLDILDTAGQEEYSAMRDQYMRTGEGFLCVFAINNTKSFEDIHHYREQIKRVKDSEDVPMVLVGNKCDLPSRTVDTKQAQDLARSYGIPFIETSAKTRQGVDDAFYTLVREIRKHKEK
Assay: Inhibitory activity on interaction between KRAS G12C and cRAF (Alpha technology)
Conditions: IC50, GMPPNP-bound KRAS G12C incubated with compound 25° C. 1 hour; Table 2-1
Description: Interaction between recombinant K-Ras4B G12C mutant protein (amino acids 1-169, SEQ ID NO:2) and cRAF RAS-binding domain (cRAF-RBD, amino acids 50-132, Jena Biosciences GmbH) was measured using Alpha technology (PerkinElmer Inc.). Recombinant KRAS G12C protein with an N-terminal His-tag was expressed in E. coli and purified by affinity chromatography. […]
attribute_measured: pIC50
pIC50 field: float, defined as -log10 of concentration (mol/L).

Check out these entries, answers already filled in.
>>> measurement("CC(=O)CC(C)(C)NC/C=C/C(=O)Nc1c(F)cc(C(=O)c2cn3c4c(cccc24)-c2c(C)cc4c(nc(C)n4C)c2N(C)CC3)cc1F")
7.27
>>> measurement("Cc1nc2c3c(c(C(F)(F)F)cc2n1C)-c1cccc2c(C(=O)c4cc(F)c(NC(=O)/C=C/CN[C@H]5CCOC5)c(F)c4)cn(c12)CCN3C (single isomer, unassigned)")
7.74
>>> measurement("Cc1cc2c(nc(C)n2C)c2c1-c1cccc3c(C(=O)c4cc(F)c(NC(=O)/C=C/CN[C@H]5[C@@H]6COC[C@@H]65)c(F)c4)cn(c13)CCN2C")
7.75
>>> measurement("Cc1cc2c(nc(C)n2C)c2c1-c1cccc3c(C(=O)c4cc(F)c(NC(=O)/C=C/CNC(C)(C)C(=O)N(C)C)c(F)c4)cn(c13)CCN2C")
7.00
>>> measurement("Cc1cc2c(nc(C)n2C)c2c1-c1cccc3c(C(=O)c4cc(F)c(NC(=O)/C=C/CNC56CCC(CC5)OC6)c(F)c4)cn(c13)CCN2C [Example 119]")
7.77

Which value of pIC50 has been reported for `CO[C@H]1CC[C@H](NC/C=C/C(=O)Nc2c(F)cc(C(=O)c3cn4c5c(cccc35)-c3c(C(F)(F)F)cc5c(nc(C)n5C)c3N(C)C(=O)C4)cc2F)CC1` in the records? 7.65

Repeat with Cc1nc2c3c(c(C(F)(F)F)cc2n1C)-c1cccc2c(C(=O)c4cc(F)c(NC(=O)/C=C/CN[C@@H]5CCOC5)c(F)c4)cn(c12)CCN3C (single isomer, unassigned) 7.51

Repeat with `CCN(CC)[C@H]1CC[C@H](NC/C=C/C(=O)Nc2c(F)cc(C(=O)c3cn4c5c(cccc35)-c3c(C(F)(F)F)cc5c(nc(C)n5C)c3N(C)CC4)cc2F)CC1` 7.95

Repeat with `CCN1CCn2cc(C(=O)c3cc(F)c(NC(=O)/C=C/CN[C@H]4CC[C@H](OC)CC4)c(F)c3)c3cccc(c32)-c2c(C)cc3c(nc(C)n3C)c21` 7.27

Repeat with `Cc1cc2c(nc(C)n2C)c2c1-c1cccc3c(C(=O)c4cc(F)c(NC(=O)/C=C/CNCC(=O)N(C)C)c(F)c4)cn(c13)CCN2C` 7.15

Repeat with Cc1cc2c(nc(C)n2C)c2c1-c1cccc3c(C(=O)c4cc(F)c(NC(=O)/C=C/CN[C@H]5C[C@@H]6CC[C@H]5O6)c(F)c4)cn(c13)CCN2C (racemic) 7.96

Every entry's value here was drawn from patent US20240262842A1.
